Reported values of IC50 for individual entries
# studySystem: UniProt:P22607
# Sequence (P22607 23-806): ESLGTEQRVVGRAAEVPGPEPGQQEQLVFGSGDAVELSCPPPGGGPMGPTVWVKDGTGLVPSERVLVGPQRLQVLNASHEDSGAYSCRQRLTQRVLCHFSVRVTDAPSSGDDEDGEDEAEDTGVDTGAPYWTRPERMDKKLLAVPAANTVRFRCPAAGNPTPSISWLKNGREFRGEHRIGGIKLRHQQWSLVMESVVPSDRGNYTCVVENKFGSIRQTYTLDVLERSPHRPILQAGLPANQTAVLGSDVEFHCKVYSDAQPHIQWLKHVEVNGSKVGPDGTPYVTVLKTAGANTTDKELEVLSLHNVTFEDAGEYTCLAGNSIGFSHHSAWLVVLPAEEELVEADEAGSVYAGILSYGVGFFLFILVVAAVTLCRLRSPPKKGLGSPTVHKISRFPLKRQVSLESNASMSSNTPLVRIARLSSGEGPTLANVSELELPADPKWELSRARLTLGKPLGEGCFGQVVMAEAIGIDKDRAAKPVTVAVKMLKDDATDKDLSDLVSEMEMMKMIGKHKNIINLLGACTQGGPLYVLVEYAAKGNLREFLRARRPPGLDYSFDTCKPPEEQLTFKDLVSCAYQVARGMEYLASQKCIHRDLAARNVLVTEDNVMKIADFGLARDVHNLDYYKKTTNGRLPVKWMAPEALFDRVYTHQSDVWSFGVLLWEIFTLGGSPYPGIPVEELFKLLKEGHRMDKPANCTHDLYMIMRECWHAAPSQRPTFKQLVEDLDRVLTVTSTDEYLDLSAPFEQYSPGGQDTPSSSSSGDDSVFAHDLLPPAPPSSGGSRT
# protocolText: biochemical
# Type: biochemical
# settings: FGFR3-IC50
Only the number, expressed in µM, is required.

molecule | unitAbbreviation | IC50
CN1CCN(C(=O)c2ccc(-c3ccc4c(c3)/C(=C\c3ccc(N5CCN(C=O)CC5)cc3)C(=O)N4)cc2)CC1 [Compound A29] | µM | 0.187
O=C1Nc2ccc(-c3ccc(-c4ccc(O)cc4)cc3)cc2/C1=C\c1ccc(N2CCOCC2)cc1 [Compound A2] | µM | 3.46
O=C1Nc2ccc(-c3ccc(C(=O)N4CCCC4)cc3)cc2/C1=C\c1ccc(N2CCOCC2)cc1 [Compound A6] | µM | 1.09
CN1CCN(c2ccc(/C=C3/C(=O)Nc4ccc(-c5ccc6cc(O)ccc6c5)cc43)cc2)CC1 [Compound A13] | µM | 17.1
CN1CCN(C(=O)c2ccc(-c3ccc4c(c3)/C(=C\c3ccc(N5CCN(C)CC5)cc3)C(=O)N4)cc2)CC1 [Compound A17] | µM | 0.0133
O=C1Nc2ccc(-c3ccc(C(=O)N4CCOCC4)cc3)cc2/C1=C\c1ccc(N2CCC(O)CC2)cc1 [Compound A9] | µM | 0.0191

Query: So what's the measured IC50 for this one? O=CN1CCN(c2ccc(/C=C3/C(=O)Nc4ccc(-c5ccc(C(=O)N6CCOCC6)cc5)cc43)cc2)CC1 [Compound A27]
Response: 0.131

Query: If you can, please state the reported IC50 value of CN1CCN(c2ccc(/C=C3/C(=O)Nc4ccc(-c5ccc(C(=O)N6CCOCC6)cc5)cc43)cc2)CC1 [Compound A15] .
Response: 0.0388

Query: Dear colleague, I am looking for the recorded IC50 of the following molecule: O=C1Nc2ccc(-c3ccc4cc(O)ccc4c3)cc2/C1=C\c1ccc(N2CCOCC2)cc1 [Compound A1]
Response: 1.42

Query: Need IC50, item O=C1Nc2ccc(-c3ccc(C(=O)N4CCCC4)cc3)cc2/C1=C\c1ccc(N2CCC(O)CC2)cc1 [Compound A12]
Response: 0.0225

Query: Could you share which IC50 value was measured for O=CN1CCN(c2ccc(/C=C3/C(=O)Nc4ccc(-c5ccc(C(=O)N6CCCCC6)cc5)cc43)cc2)CC1 [Compound A28] ?
Response: 0.0336

---

# studySystem: FGFR4 (Homo sapiens, UniProt P22455)
# Sequence (P22455 22-802): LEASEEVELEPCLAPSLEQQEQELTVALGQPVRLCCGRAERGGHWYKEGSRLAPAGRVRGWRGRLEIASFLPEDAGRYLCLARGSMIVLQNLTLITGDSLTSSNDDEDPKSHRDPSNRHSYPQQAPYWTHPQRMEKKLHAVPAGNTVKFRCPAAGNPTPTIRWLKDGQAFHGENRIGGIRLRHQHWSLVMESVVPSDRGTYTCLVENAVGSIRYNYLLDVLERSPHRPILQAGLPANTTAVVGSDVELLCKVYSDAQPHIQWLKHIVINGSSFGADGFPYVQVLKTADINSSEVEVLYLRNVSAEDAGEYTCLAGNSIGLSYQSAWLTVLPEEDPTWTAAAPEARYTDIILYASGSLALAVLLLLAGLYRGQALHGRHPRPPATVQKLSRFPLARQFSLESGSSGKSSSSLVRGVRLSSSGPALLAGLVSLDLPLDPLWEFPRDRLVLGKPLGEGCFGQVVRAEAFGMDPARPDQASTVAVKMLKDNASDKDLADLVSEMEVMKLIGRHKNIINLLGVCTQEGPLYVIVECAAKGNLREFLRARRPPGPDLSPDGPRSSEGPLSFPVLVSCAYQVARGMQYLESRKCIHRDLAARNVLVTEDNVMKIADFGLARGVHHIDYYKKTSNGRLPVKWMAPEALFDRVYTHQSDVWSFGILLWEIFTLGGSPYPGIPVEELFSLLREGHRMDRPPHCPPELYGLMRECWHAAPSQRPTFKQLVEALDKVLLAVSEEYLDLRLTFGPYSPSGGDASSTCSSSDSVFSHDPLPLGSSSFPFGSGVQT
# protocolText: biochemical
# Assay type: biochemical
experimentalEndpoint: FGFR4-SI
Quick one: just the number, no unit, thanks!

chemSmiles | result
O=CN1CCN(c2ccc(/C=C3/C(=O)Nc4ccc(-c5ccc(C(=O)N6CCCC6)cc5)cc43)cc2)CC1 | 94.136
O=C1Nc2ccc(-c3ccc(C(=O)N4CCOCC4)cc3)cc2/C1=C\c1ccc(N2CCC(O)CC2)cc1 | 927.339

Query: Given the entry CN1CCN(C(=O)c2ccc(-c3ccc4c(c3)/C(=C\c3ccc(N5CCN(C=O)CC5)cc3)C(=O)N4)cc2)CC1 , report its measured FGFR4-SI.
Response: 32.626

Query: // returns reported FGFR4-SI for input O=CN1CCN(c2ccc(/C=C3/C(=O)Nc4ccc(-c5ccc(C(=O)N6CCCCC6)cc5)cc43)cc2)CC1
Response: 209.223

Query: Which value of FGFR4-SI has been reported for O=C1Nc2ccc(-c3ccc(C(=O)N4CCOCC4)cc3)cc2/C1=C\c1ccc(N2CCOCC2)cc1 in the records?
Response: 69.878

---

# studySystem: FGFR1 (Homo sapiens)
# Sequence (P11362 22-822): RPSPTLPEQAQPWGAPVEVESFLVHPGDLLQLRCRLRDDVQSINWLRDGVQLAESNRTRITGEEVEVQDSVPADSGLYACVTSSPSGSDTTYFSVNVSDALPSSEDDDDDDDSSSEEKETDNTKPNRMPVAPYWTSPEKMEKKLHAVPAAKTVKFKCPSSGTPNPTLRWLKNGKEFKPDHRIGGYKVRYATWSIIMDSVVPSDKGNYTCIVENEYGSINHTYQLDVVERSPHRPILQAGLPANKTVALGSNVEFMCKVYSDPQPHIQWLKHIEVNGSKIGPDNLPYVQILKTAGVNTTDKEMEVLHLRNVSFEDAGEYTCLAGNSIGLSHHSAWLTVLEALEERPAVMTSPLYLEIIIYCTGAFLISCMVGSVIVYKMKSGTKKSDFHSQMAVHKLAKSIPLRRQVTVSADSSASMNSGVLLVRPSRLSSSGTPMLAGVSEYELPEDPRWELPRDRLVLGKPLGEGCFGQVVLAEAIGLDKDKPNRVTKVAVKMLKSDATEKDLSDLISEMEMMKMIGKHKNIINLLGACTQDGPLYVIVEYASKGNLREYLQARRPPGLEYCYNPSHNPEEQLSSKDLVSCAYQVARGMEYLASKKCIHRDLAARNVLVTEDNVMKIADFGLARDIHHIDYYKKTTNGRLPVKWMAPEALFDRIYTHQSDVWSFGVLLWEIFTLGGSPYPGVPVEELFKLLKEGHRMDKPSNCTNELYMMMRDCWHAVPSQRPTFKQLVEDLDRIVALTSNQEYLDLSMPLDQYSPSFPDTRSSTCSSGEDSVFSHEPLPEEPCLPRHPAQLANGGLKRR
# protocolText: Z'-LYTE kinase enzyme inhibition assay, FGFR1
# Type: biochemical
# settings: FGFR1-IC50
experimentalEndpoint: IC50 (nM)
Dear colleague, please return just the value in nM, with no unit written.

Below are worked cases with known answers.
chemSmiles | IC50 / nM
O=C1Nc2ccc(-c3ccc(C(=O)N4CCCCC4)cc3)cc2/C1=C\c1ccc(N2CCC(O)CC2)cc1 | 345
O=C1Nc2ccc(-c3ccc(C(=O)N4CCOCC4)cc3)cc2/C1=C\c1ccc(N2CCC(O)CC2)cc1 | 64.4
O=C1Nc2ccc(-c3ccc(-c4ccc(O)cc4)cc3)cc2/C1=C\c1ccc(N2CCOCC2)cc1 | 219

Now take the following molecule into account.
Query: Need IC50, item CN1CCN(C(=O)c2ccc(-c3ccc4c(c3)/C(=C\c3ccc(N5CCN(C)CC5)cc3)C(=O)N4)cc2)CC1
Response: 820

---

# studySystem: FGFR2 (Homo sapiens)
# Sequence (P21802 22-821): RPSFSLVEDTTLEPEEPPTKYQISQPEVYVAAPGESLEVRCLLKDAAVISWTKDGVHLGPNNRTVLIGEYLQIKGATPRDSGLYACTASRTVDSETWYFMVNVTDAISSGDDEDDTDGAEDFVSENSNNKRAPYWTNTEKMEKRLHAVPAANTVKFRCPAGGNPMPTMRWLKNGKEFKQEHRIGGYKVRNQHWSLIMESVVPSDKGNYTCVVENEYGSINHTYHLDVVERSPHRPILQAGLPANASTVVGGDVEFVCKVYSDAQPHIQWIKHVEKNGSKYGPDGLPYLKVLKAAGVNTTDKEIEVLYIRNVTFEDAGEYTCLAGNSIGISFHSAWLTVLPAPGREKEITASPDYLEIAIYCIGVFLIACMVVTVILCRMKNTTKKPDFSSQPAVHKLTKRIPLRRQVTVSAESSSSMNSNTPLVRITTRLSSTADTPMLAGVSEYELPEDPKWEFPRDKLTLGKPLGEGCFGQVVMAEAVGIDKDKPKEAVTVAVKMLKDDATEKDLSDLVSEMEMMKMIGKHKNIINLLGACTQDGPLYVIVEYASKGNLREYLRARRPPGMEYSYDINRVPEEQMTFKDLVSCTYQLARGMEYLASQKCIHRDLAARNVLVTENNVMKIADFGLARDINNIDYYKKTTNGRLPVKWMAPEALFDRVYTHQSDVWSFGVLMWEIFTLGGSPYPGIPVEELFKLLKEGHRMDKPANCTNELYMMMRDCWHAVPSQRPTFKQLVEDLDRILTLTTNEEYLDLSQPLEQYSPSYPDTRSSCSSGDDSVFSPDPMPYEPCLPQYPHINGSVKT
experimentalEndpoint: pIC50
Schema: pIC50 number; meaning minus log10 of the concentration expressed in molar units.

Example cases with answers are listed next.
chemSmiles | pIC50
O=C1Nc2ccc(-c3ccc4cc(O)ccc4c3)cc2/C1=C\c1ccc(N2CCOCC2)cc1 | 8.23
CN1CCN(c2ccc(/C=C3/C(=O)Nc4ccc(-c5ccc6cc(O)ccc6c5)cc43)cc2)CC1 | 5.99

Now, please, on to the next compound.
Query: Write down the reported pIC50 of O=C1Nc2ccc(-c3ccc(-c4ccc(O)cc4)cc3)cc2/C1=C\c1ccc(N2CCOCC2)cc1 , test system: FGFR2 (Homo sapiens).
Response: 8.07

---

# studySystem: FGFR4 (Homo sapiens, UniProt P22455)
# protocolText: biochemical
# Format: biochemical
# settings: read-out: FGFR4-IC50
experimentalEndpoint: IC50

Query: So what's the measured IC50 for this one? O=CN1CCN(c2ccc(/C=C3/C(=O)Nc4ccc(-c5ccc(-c6ccc(O)cc6)cc5)cc43)cc2)CC1
Response: 10.1 µM

---

The entries below are paired with their reported FGFR3-SI.
# System: FGFR3
# protocolText: biochemical
# Assay type: biochemical

Below: 3 compounds and their reported FGFR3-SI.
chemSmiles | result
O=C1Nc2ccc(-c3ccc(-c4ccc(O)cc4)cc3)cc2/C1=C\c1ccc(N2CCOCC2)cc1 | 409.791
O=CN1CCN(c2ccc(/C=C3/C(=O)Nc4ccc(-c5ccc(C(=O)N6CCOCC6)cc5)cc43)cc2)CC1 | 10.962
O=C1Nc2ccc(-c3ccc(C(=O)N4CCCCC4)cc3)cc2/C1=C\c1ccc(N2CCOCC2)cc1 | 1.819

Next up:
Query: Field request: FGFR3-SI | item: CN1CCN(c2ccc(/C=C3/C(=O)Nc4ccc(-c5ccc(C(=O)N6CCCC6)cc5)cc43)cc2)CC1
Response: 3.167

---

Below, each entry is listed with its recorded pIC50.
# studySystem: FGFR4 (Homo sapiens)
# protocolText: biochemical
# Format: biochemical
Note: pIC50 values are expressed as the negative base-10 logarithm of concentration in M.

Examples with answers:
molecule | pIC50
CN1CCN(c2ccc(/C=C3/C(=O)Nc4ccc(-c5ccc(C(=O)N6CCCCC6)cc5)cc43)cc2)CC1 [Compound A16] | 4.82
O=CN1CCN(c2ccc(/C=C3/C(=O)Nc4ccc(-c5ccc(C(=O)N6CCOCC6)cc5)cc43)cc2)CC1 [Compound A27] | 5.03
O=CN1CCN(c2ccc(/C=C3/C(=O)Nc4ccc(-c5ccc(C(=O)N6CCCC6)cc5)cc43)cc2)CC1 [Compound A30] | 5.20
CN1CCN(C(=O)c2ccc(-c3ccc4c(c3)/C(=C\c3ccc(N5CCC(O)CC5)cc3)C(=O)N4)cc2)CC1 [Compound A11] | 4.69
CN1CCN(c2ccc(/C=C3/C(=O)Nc4ccc(-c5ccc(C(=O)N6CCCC6)cc5)cc43)cc2)CC1 [Compound A18] | 4.84

Query: Consider the molecule shown here: O=C1Nc2ccc(-c3ccc(-c4ccc(O)cc4)cc3)cc2/C1=C\c1ccc(N2CCOCC2)cc1 [Compound A2] What is its recorded pIC50?
Response: 4.67

Query: Would you kindly share the measured pIC50 for O=C1Nc2ccc(-c3ccc(C(=O)N4CCCC4)cc3)cc2/C1=C\c1ccc(N2CCOCC2)cc1 [Compound A6] ?
Response: 6.08

---

# studySystem: FGFR4 (Homo sapiens, UniProt P22455)
# protocolText: biochemical
# Format: biochemical
experimentalEndpoint: IC50 (µM)
Quick note: give the figure in µM, leave out the unit.

chemSmiles | IC50 / µM
CN1CCN(C(=O)c2ccc(-c3ccc4c(c3)/C(=C\c3ccc(N5CCN(C=O)CC5)cc3)C(=O)N4)cc2)CC1 | 6.1
O=C1Nc2ccc(-c3ccc(C(=O)N4CCCCC4)cc3)cc2/C1=C\c1ccc(N2CCOCC2)cc1 | 15.1
O=C1Nc2ccc(-c3ccc(C(=O)N4CCOCC4)cc3)cc2/C1=C\c1ccc(N2CCC(O)CC2)cc1 | 17.7
O=C1Nc2ccc(-c3ccc4cc(O)ccc4c3)cc2/C1=C\c1ccc(N2CCOCC2)cc1 | 37.1
CN1CCN(c2ccc(/C=C3/C(=O)Nc4ccc(-c5ccc(C(=O)N6CCOCC6)cc5)cc43)cc2)CC1 | 14.8
O=CN1CCN(c2ccc(/C=C3/C(=O)Nc4ccc(-c5ccc6cc(O)ccc6c5)cc43)cc2)CC1 | 6.13
O=C1Nc2ccc(-c3ccc(C(=O)N4CCOCC4)cc3)cc2/C1=C\c1ccc(N2CCOCC2)cc1 | 3.67
O=C1Nc2ccc(-c3ccc(C(=O)N4CCCCC4)cc3)cc2/C1=C\c1ccc(N2CCC(O)CC2)cc1 | 23.2

Query: Form: Entry = CN1CCN(c2ccc(/C=C3/C(=O)Nc4ccc(-c5ccc6cc(O)ccc6c5)cc43)cc2)CC1 | System = FGFR4 (Homo sapiens, UniProt P22455) | IC50 = ____
Response: 8.99

Query: IC50 of O=C1Nc2ccc(-c3ccc(C(=O)N4CCCC4)cc3)cc2/C1=C\c1ccc(N2CCC(O)CC2)cc1 on FGFR4 (Homo sapiens, UniProt P22455)?
Response: 4.89

Query: // lookup IC50 | system=FGFR4 (Homo sapiens, UniProt P22455) | key= CN1CCN(C(=O)c2ccc(-c3ccc4c(c3)/C(=C\c3ccc(N5CCN(C)CC5)cc3)C(=O)N4)cc2)CC1
Response: 7.23

Query: For FGFR4 (Homo sapiens, UniProt P22455), provide IC50 of O=CN1CCN(c2ccc(/C=C3/C(=O)Nc4ccc(-c5ccc(C(=O)N6CCCCC6)cc5)cc43)cc2)CC1 please.
Response: 7.03
